Experiment: Retention factor, logKw of compound in MeOH/0.01 M phosphate buffer at pH 7.4 by RP-HPLC method
Format: physicochemical
Hi! Just check whether logKw is below 0.6. Below gives Condition met, equal or above gives Condition not met.

Recorded results for 3 compounds are shown here.
1. O=C(CCOCCN1CCN(c2cccnc2-c2ccccc2)CC1)NCc1ccc(C(F)(F)F)cc1	Condition met
2. COc1ccc(-c2ccccc2N2CCN(CCCCCC(=O)NCc3ccccn3)CC2)cc1	Condition met
3. N#Cc1ccc(CNC(=O)CCCCCN2CCN(c3ccccc3-c3ccccc3)CC2)cc1	Condition met

Note: attention shifts to another entry.
Record C[C@H](NC(=O)CCCCCN1CCN(c2ccccc2-c2ccccc2)CC1)c1ccccc1 : is its logKw strictly below 0.6?
Condition not met
